Origin of values: paper PMC10539501

# ASSAY_OVERVIEW: in vitro
# CONDITION_INFO: pig, simulated intestinal fluid
Starred links: 1 amine or outer side, 2 acyl side, 3 side chain; linkers in the order of their positions; H or OH if unused. Non-standard residues stand in square brackets, D forms with d. Residues, ends and D or L forms follow the SMILES beside them. X6 = O=C([C@H](Cc1ccc(O)cc1)NC(=S)[C@H]1CCCN1[*:1])[*:2]; X3 = CC(C)C[C@H](N[*:1])C(=S)N[C@H](CC(C)C)C(=O)[*:2]; NMeL = CN[C@@H](CC(C)C)C(=O)O
ASSAY_ENDPOINT: remaining at 12 h (%)

[P] CC(C)C[C@@H]1NC(=O)[C@H](Cc2ccc(O)cc2)NC(=O)[C@H]2CCCN2C(=O)[C@H](CC(C)C)N(C)C(=O)[C@H](CC(C)C)NC(=O)[C@@H](CC(C)C)NC1=O [10i] (cyclo(L[NMeL][dP]YL[dL]))
[Q] CC(C)C[C@@H]1NC(=O)[C@H](Cc2ccc(O)cc2)NC(=S)[C@H]2CCCN2C(=O)[C@H](CC(C)C)NC(=O)[C@H](CC(C)C)NC(=O)[C@@H](CC(C)C)NC1=O [10d] (cyclo(LL[X6]L[dL]))
[R] CC(C)C[C@@H]1NC(=O)[C@H](Cc2ccc(O)cc2)NC(=O)[C@H]2CCCN2C(=O)[C@H](CC(C)C)NC(=O)[C@H](CC(C)C)NC(=O)[C@@H](CC(C)C)NC1=O [compound 10, cyclo(-D-Leu^1-Leu-Leu-D-Pro-Tyr-Leu^6-)] (cyclo(LL[dP]YL[dL]))
[S] CC(C)C[C@@H]1NC(=O)[C@@H](CC(C)C)NC(=S)[C@H](CC(C)C)NC(=O)[C@H](Cc2ccc(O)cc2)NC(=O)[C@H]2CCCN2C(=O)[C@H](CC(C)C)NC1=O [10f] (cyclo(LL[dP]Y[X3]))
Query: Lab note: remaining at 12 h ranking, ascending, for the listed compounds. Please, when replying, give the labels in the order that was requested.
Result: P, R, Q, S
(P: 3%, R: 5.5%, Q: 11.2%, S: 24.6%)

---

# ASSAY_OVERVIEW: in vitro
# CONDITION_INFO: both, human, plasma
Non-standard residues stand in square brackets, D forms with d. Residues, ends and D or L forms follow the SMILES beside them. NMeY = CN[C@@H](Cc1ccc(O)cc1)C(=O)O; NMeL = CN[C@@H](CC(C)C)C(=O)O; dNMeL = CN[C@H](CC(C)C)C(=O)O
ASSAY_ENDPOINT: remaining at 4 h (%)

1. CC(C)C[C@@H]1NC(=O)[C@H](Cc2ccc(O)cc2)NC(=O)[C@H]2CCCN2C(=O)[C@H](CC(C)C)N(C)C(=O)[C@H](CC(C)C)NC(=O)[C@@H](CC(C)C)NC1=O [10i] (cyclo(L[NMeL][dP]YL[dL]))    83
2. CC(C)C[C@@H]1NC(=O)[C@H](Cc2ccc(O)cc2)NC(=O)[C@H]2CCCN2C(=O)[C@H](CC(C)C)NC(=O)[C@H](CC(C)C)N(C)C(=O)[C@@H](CC(C)C)NC1=O [10h] (cyclo(L[dL][NMeL]L[dP]Y))    77
3. CC(C)C[C@@H]1NC(=O)[C@@H](CC(C)C)NC(=O)[C@H](CC(C)C)N(C)C(=O)[C@H](Cc2ccc(O)cc2)NC(=O)[C@H]2CCCN2C(=O)[C@H](CC(C)C)NC1=O [10k] (cyclo(LL[dP]Y[NMeL][dL]))    69
4. CC(C)C[C@@H]1NC(=O)[C@@H](CC(C)C)NC(=O)[C@H](CC(C)C)NC(=O)[C@H](Cc2ccc(O)cc2)N(C)C(=O)[C@H]2CCCN2C(=O)[C@H](CC(C)C)NC1=O [10j] (cyclo(LL[dP][NMeY]L[dL]))    61
5. CC(C)C[C@@H]1NC(=O)[C@@H](CC(C)C)N(C)C(=O)[C@H](CC(C)C)NC(=O)[C@H](Cc2ccc(O)cc2)NC(=O)[C@H]2CCCN2C(=O)[C@H](CC(C)C)NC1=O [10g] (cyclo(LL[dP]YL[dNMeL]))    83
